experiment: Macrophage cytotoxicity, LDH release assay; type: cell-based, murine; settings: mouse, RAW 264.7 macrophages stimulated with LPS; LPS-stimulated RAW 264.7, LDH release; mean ± SD, n = 3
I'd be grateful if you could share measured pIC50 for these entries.
Numbers only, as −log10 of the molar value.

Consider the following illustrative entries.
response.value for O=C(/C=C/c1ccc(Cl)cc1)c1ccc(Br)cc1 (field: pIC50) = 3.95

response.value for O=C(/C=C/c1ccccc1)c1ccccc1 [Chalcone 1, 1,3-diphenyl-2-propenone, reference compound] (field: pIC50) = 3.75

response.value for Cc1ccc(C(=O)/C=C/c2ccc([N+](=O)[O-])cc2)cc1 (field: pIC50) = 3.48

For every record below, what is its pIC50?
1. COc1ccc(C(=O)/C=C/c2ccccc2Cl)cc1
2. O=C(/C=C/c1ccccc1)c1ccccc1Cl
3. CN(C)c1ccc(/C=C/C(=O)c2ccc(Br)cc2)cc1
4. O=C(/C=C/c1ccc(Cl)cc1)c1ccccc1Cl

Completion:
4.00
3.57
3.88
3.45

response.value for COc1ccc(C(=O)/C=C/c2ccccc2)cc1 (field: pIC50) = 3.61

* * *

test system: M. tuberculosis strain H37Rv in RAW 264.7 macrophages; assay: Intracellular growth of M. tuberculosis H37Rv in infected macrophages (CFU); format: cell-based, Mycobacterium tuberculosis; conditions: Mycobacterium tuberculosis, H37RV, 96 h, infected RAW 264.7, MOI 1:1, 4 days, Figure 3C
I'd be grateful if you could share measured MIC50 for these entries.
Numbers only, in µM.

Consider the following illustrative entries.
response.value for O=C(/C=C/c1ccccc1Cl)c1ccc(Br)cc1 (field: MIC50) = 242

response.value for COc1ccc(C(=O)/C=C/c2ccc(F)cc2)cc1 (field: MIC50) = 49.1

response.value for O=C(/C=C/c1ccc(Cl)cc1)c1ccccc1 (field: MIC50) = 12.3

response.value for O=C(/C=C/c1ccc2c(c1)OCO2)c1ccccc1 (field: MIC50) = 3.8

# input for lookup
response.value for CN(C)c1ccc(/C=C/C(=O)c2ccccc2)cc1 (field: MIC50) = 4.2

* * *

I'd be grateful if you could share measured MIC90 for these entries.
test system: M. tuberculosis M299; test: microbe, parasite or virus in culture; assay type: cell-based, Mycobacterium tuberculosis; conditions: Mycobacterium tuberculosis, M299, 120 h
One number for each entry, in µM.

response.value for O=C(/C=C/c1ccc2c(c1)OCO2)c1ccccc1 (field: MIC90) = 290

For every record below, what is its MIC90?
1. O=C(/C=C/c1ccccc1)c1ccc(Br)cc1
2. CO[C@H]1/C=C/O[C@@]2(C)Oc3c(C)c(O)c4c(O)c(c(/C=N/N5CCN(C)CC5)c(O)c4c3C2=O)NC(=O)/C(C)=C\C=C\[C@H](C)[C@H](O)[C@@H](C)[C@@H](O)[C@@H](C)[C@H](OC(C)=O)[C@@H]1C [Rifampicin, rifampicin, reference compound]
3. CN(C)c1ccc(/C=C/C(=O)c2ccccc2)cc1
4. O=C(/C=C/c1ccc(Cl)cc1)c1ccccc1
5. COc1ccc(C(=O)/C=C/c2ccc(F)cc2)cc1

Completion:
1: 345; 2: 3.3; 3: 352; 4: 374; 5: 367

response.value for O=C(/C=C/c1ccc(F)cc1)c1ccc(Br)cc1 (field: MIC90) = 313
